Cited source for all entries: patent US9643964B2

# Test system: L-363 cells
# Assay notes: Biological Assay C: antiproliferative activity on L-363 cells (CellTiter-Glo)
# Assay type: cell-based, human
# Condition parameters: Homo sapiens, L-363, 72 h, 72 hr treatment; averaged values
Could you please report measured log10 of EC50 for the items listed next?
Log10 applied to EC50; unit prior to transform: nM.

Some entries whose results are on file:
CC(C)(O)C#Cc1cc2c(-c3ccnc(N)n3)cn(C3CNC3)c2cn1: 3.66
CC(C)(O)C#Cc1cc2c(-c3ccnc(N)n3)cn(CCC#N)c2cn1: 2.96
CC(O)(C#Cc1cc2c(-c3nc(N)ncc3F)cn(C3CCN(CC4CC4)CC3)c2cn1)C1CC1 (stereo not shown): 2.30
CN(C)C(=O)n1cc(-c2nc(N)ncc2F)c2cc(C#CC(C)(O)C3CC3)ncc21 (stereo not shown): 1.68
CC(C)(O)C#Cc1cc2c(-c3nc(N)ncc3C(F)(F)F)c[nH]c2cn1: 2.53

For each entry beneath this line, provide reported log10 of EC50.
1. COCCn1cc(-c2ccnc(N)n2)c2cc(C#CC(C)(O)c3nccs3)ncc21 (stereo not shown)
2. COCCCn1cc(-c2nc(N)ncc2F)c2cc(C#CC(C)(C)O)nc(Cl)c21
3. CN(C)C(=O)CCn1cc(-c2ccnc(N)n2)c2cc(C#CC(C)(C)O)ncc21
4. CN1CC(n2cc(-c3ccnc(N)n3)c3cc(C#CC(C)(C)O)ncc32)C1
5. CC(C)N1CC(n2cc(-c3nc(N)ncc3F)c3cc(C#CC(C)(O)C4CC4)ncc32)C1 (stereo not shown)
6. CC(C)(O)C#Cc1cc2c(-c3ccnc(N)n3)cn(CC3COC3)c2cn1
7. CC(C)(O)Cn1cc(-c2ccnc(N)n2)c2cc(C#CC(C)(O)c3ccccc3)ncc21 (stereo not shown)
8. COCCOc1cnc(N)nc1-c1cn(C(C)C)c2cnc(C#CC(C)(O)C3CC3)cc12 (stereo not shown)

4.04
1.51
3.88
2.38
2.26
2.91
3.90
1.36

Look at each molecule and report its log10 of EC50.
1. COCCCn1cc(-c2cc(C)nc(N)n2)c2cc(C#CC(C)(C)O)ncc21
2. CC(O)(C#Cc1cc2c(-c3nc(N)ncc3F)cn(C3CN(CC4CCCC4)C3)c2cn1)C1CC1 (stereo not shown)

[3.77, 2.76]

Please report log10 of EC50 for every entry that follows.
1. COCCCN1CC(n2cc(-c3nc(N)ncc3F)c3cc(C#CC(C)(O)C4CC4)ncc32)C1 (stereo not shown)
2. COCCn1cc(-c2nc(N)ncc2Cl)c2cc(C#CC(C)(C)O)ncc21
3. CC(C)n1cc(-c2nc(N)ncc2CCCN)c2cc(C#CC(C)(C)O)ncc21

[2.56, 1.80, 3.20]

Please report log10 of EC50 for every entry that follows.
1. Nc1ncc(F)c(-c2cn(C3COC3)c3cnc(C#CC(O)(CF)C4CC4)cc23)n1 (stereo not shown)
2. CN1CCC(n2cc(-c3nc(N)ncc3F)c3cc(C#CC(C)(O)C4CC4)ncc32)C1 (stereo not shown)

2.58
1.76

* * *

# Experimental system: Recombinant Human NF-kappaB-Inducing Kinase (NIK/MAP3K14) (Homo sapiens)
# Assay notes: Biological Assay A2: inhibition of auto-phosphorylation of recombinant human NIK/MAP3K14 (AlphaScreen)
# Assay type: biochemical
# Condition parameters: auto-phosphorylation; averaged over all measurements on all batches; read-out: αscreen IC50
Field: IC50. Provide a value for each of the molecules that follow.
Answers are plain numbers, in nM.

Some entries whose results are on file:
CC(C)(O)C#Cc1cc2c(-c3ccnc(N)n3)cn(CCCN)c2cn1 [Compound 11]: 27
COCCCn1cc(-c2nc(N)ncc2F)c2cc(C#CC(C)(O)C3CC3)ncc21 (centres unmarked) [Compound 88]: 15
CC(C)(O)C#Cc1cc2c(-c3ccnc(N)n3)cn(CCS(C)(=O)=O)c2cn1 [Compound 67]: 30

Below are 6 molecules. Give each one its IC50.
1. COCCNC(=O)c1[nH]c2cnc(C#CC(C)(C)O)cc2c1-c1ccnc(N)n1 [Compound 52]
2. CC(C)(O)Cn1cc(-c2ccnc(N)n2)c2cc(C#CC(C)(O)C(F)(F)F)ncc21 (centres unmarked) [Compound 111]
3. CCCCC(=O)NCCCn1cc(-c2ccnc(N)n2)c2cc(C#CC(C)(C)O)ncc21 [Compound 147]
4. CC(C)n1cc(-c2nc(N)ncc2F)c2cc(C#CC3(O)CCN(C)C3=O)ncc21 (centres unmarked) [Compound 150]
5. CC(O)(C#Cc1cc2c(-c3nc(N)ncc3C(F)(F)F)cn(C3COC3)c2cn1)C1CC1 (centres unmarked) [Compound 100]
6. CC(C)(O)C#Cc1cc2c(-c3nc(N)ncc3C(F)(F)F)cn(CC3CCOCC3)c2cn1 [Compound 71]

1. 33
2. 190
3. 130
4. 210
5. 61
6. 61

* * *

What IC50 was measured for each of the following?
# Experimental system: Recombinant Human NF-kappaB-Inducing Kinase (NIK/MAP3K14) (Homo sapiens, UniProt Q99558)
# Sequence (Q99558 whole entry): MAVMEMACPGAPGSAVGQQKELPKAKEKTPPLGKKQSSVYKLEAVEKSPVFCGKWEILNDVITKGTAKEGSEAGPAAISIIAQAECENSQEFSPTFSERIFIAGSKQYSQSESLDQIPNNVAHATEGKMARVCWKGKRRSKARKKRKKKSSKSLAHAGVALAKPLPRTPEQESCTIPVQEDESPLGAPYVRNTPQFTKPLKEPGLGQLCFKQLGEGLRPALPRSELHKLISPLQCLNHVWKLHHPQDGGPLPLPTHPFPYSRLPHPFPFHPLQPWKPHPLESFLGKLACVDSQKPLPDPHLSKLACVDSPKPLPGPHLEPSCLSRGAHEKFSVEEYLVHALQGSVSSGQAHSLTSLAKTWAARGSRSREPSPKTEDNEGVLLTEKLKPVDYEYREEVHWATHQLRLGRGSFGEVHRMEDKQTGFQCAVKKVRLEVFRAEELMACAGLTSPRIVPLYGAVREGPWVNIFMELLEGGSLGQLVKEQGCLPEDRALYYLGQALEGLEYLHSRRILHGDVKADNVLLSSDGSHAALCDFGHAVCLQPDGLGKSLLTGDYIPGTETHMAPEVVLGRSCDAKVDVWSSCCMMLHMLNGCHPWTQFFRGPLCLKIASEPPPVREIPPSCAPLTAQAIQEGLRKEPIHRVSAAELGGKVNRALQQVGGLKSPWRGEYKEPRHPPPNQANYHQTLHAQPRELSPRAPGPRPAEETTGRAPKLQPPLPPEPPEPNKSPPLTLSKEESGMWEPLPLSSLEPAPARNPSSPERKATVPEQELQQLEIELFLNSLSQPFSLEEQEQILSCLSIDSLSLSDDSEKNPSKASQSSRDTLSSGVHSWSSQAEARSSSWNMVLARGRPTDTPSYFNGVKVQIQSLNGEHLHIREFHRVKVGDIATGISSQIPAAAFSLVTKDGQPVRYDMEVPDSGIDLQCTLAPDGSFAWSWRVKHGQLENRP
# Assay notes: Biological Assay A: inhibition of recombinant human NIK/MAP3K14 activity (MBP phosphorylation, Mesoscale)
# Type: biochemical
# Condition parameters: averaged over all measurements on all batches; read-out: Biochemical (MSD MBP) IC50
Answers are plain numbers, in nM.

CC(C)n1cc(-c2nc(N)ncc2Cl)c2cc(C#CC3(O)CCCC3)ncc21: 5.3
CC(C)(O)C#Cc1cc2c(-c3nc(N)ncc3C(F)(F)F)c[nH]c2cn1: 3.8
CN1CC(n2cc(-c3nc(N)ncc3F)c3cc(C#CC(C)(C)O)ncc32)C1: 28
CC(C)n1cc(-c2ccnc(N)n2)c2cc(C#CC3(O)CCCC3)ncc21: 3.7
CC(C)(O)C#Cc1cc2c(-c3ccnc(N)n3)cn(C(C)(C)CO)c2cn1: 5.8

For each entry beneath this line, provide reported IC50.
1. CC(O)C#Cc1cc2c(-c3ccnc(N)n3)cn(C(C)C)c2cn1 (stereo not shown)
2. CNC(=O)CCn1cc(-c2ccnc(N)n2)c2cc(C#CC(C)(C)O)ncc21

9.2
150

* * *

# Experimental system: Recombinant Human NF-kappaB-Inducing Kinase (NIK/MAP3K14) (Homo sapiens, UniProt Q99558)
# Assay notes: Biological Assay A2: inhibition of auto-phosphorylation of recombinant human NIK/MAP3K14 (AlphaScreen)
# Format: biochemical
# Condition parameters: auto-phosphorylation; averaged over all measurements on all batches; read-out: αscreen IC50
# Experimental: Inhibition of Auto-Phosphorylation of Recombinant Human NF-kappaB-Inducing Kinase (NIK/MAP3K14) Activity (AlphaScreen®) NIK/MAP3K14 auto-phosphorylation activity was measured using the AlphaScreen® (αscreen) format (Perkin Elmer). All compounds tested were dissolved in dimethyl sulfoxide (DMSO) and further dilutions were made in assay buffer. […] Protein A Acceptor and Glutathione-Donor beads were added before reading using an EnVision® Multilabel Plate Reader (Perkin Elmer). […]
For each record, write down the corresponding pIC50.
One number for each entry, as −log10 of the molar value.

CC(C)(O)C#Cc1cc2c(-c3nc(N)ncc3Cl)c[nH]c2cn1 [Compound 14]: 9.40
CN1CC(n2cc(-c3nc(N)ncc3C(F)(F)F)c3cc(C#CC(C)(O)C4CC4)ncc32)C1 (stereo not shown) [Compound 99]: 6.96
CN(C)C(=O)C(C)(O)C#Cc1cc2c(-c3ccnc(N)n3)cn(CC(C)(C)O)c2cn1 (stereo not shown) [Compound 63]: 6.11
CC(C)n1cc(-c2ccnc(N)n2)c2cc(C#CC(C)(C)O)ncc21 [Compound 15]: 7.92
CC(C)(O)C#Cc1cc2c(-c3ccnc(N)n3)cn(CC3COC3)c2cn1 [Compound 28]: 7.31
CCOCCN1CC(n2cc(-c3nc(N)ncc3F)c3cc(C#CC(C)(O)C4CC4)ncc32)C1 (stereo not shown) [Compound 158]: 6.74
CC(O)(C#Cc1cc2c(-c3nc(N)ncc3F)cn(C3COC3)c2cn1)C1CC1 (single isomer, unassigned) [Compound 122]: 7.59
CN1CC(n2cc(-c3nc(N)ncc3F)c3cc(C#CC(C)(O)C4CC4)nc(C4CC4)c32)C1 (stereo not shown) [Compound 102]: 6.05

Hey, can you go through the list below and give me pIC50 for every item?
1. CC(C)(O)C#Cc1cc2c(-c3nc(N)ncc3Cl)cn(CCO)c2cn1 [Compound 8]
2. CN1CC(n2cc(-c3nc(N)ncc3F)c3cc(C#CC(C)(C)O)ncc32)C1 [Compound 70]
3. CC(O)(C#Cc1cc2c(-c3nc(N)ncc3F)cn(C3COC3)c2c(C2CC2)n1)C1CC1 (stereo not shown) [Compound 98]
4. CC(C)(O)Cn1cc(-c2ccnc(N)n2)c2cc(C#CC(C)(O)C3CCC3)ncc21 (stereo not shown) [Compound 37]
5. CC(C)n1cc(-c2nc(N)ncc2Cl)c2cc(C#CC3(O)CCCC3)ncc21 [Compound 19]

1: 9.00; 2: 6.89; 3: 6.66; 4: 7.00; 5: 7.80

// for each compound in input: emit pIC50
1. COCCN1CC(n2cc(-c3nc(N)ncc3F)c3cc(C#CC(C)(O)C4CC4)ncc32)C1 (stereo not shown) [Compound 155]
2. CC(C)n1cc(-c2nc(N)ncc2Cl)c2cc(C#CC(C)(C)O)ncc21 [Compound 16]

6.85
8.70

For the 4 compounds below, give their pIC50 values.
1. CC(C)(O)C#Cc1cc2c(-c3ccnc(N)n3)cn(CC(C)(C)O)c2cn1 [Compound 3]
2. CC(C)(O)C#Cc1cc2c(-c3nc(N)ncc3F)cn(CC3CCOCC3)c2cn1 [Compound 73]
3. CCN1CC(n2cc(-c3nc(N)ncc3F)c3cc(C#CC(C)(O)C4CC4)ncc32)C1 (stereo not shown) [Compound 136]
4. CC(O)(C#Cc1cc2c(-c3nc(N)ncc3F)cn(C3CN(CC4CCCC4)C3)c2cn1)C1CC1 (stereo not shown) [Compound 146]

1: 7.47; 2: 7.15; 3: 6.92; 4: 6.70
